For each record, write down the corresponding EC50.
Molecular target: T1, CD228 protein on human melanoma SK-MEL-5 cells (human, UniProt P08582 20-709)
T1 construct: whole, on cells; Endogenous CD228 on the cell line; also called SK-MEL-5 cells (expressing CD228 proteins)
T1 sequence (looked up): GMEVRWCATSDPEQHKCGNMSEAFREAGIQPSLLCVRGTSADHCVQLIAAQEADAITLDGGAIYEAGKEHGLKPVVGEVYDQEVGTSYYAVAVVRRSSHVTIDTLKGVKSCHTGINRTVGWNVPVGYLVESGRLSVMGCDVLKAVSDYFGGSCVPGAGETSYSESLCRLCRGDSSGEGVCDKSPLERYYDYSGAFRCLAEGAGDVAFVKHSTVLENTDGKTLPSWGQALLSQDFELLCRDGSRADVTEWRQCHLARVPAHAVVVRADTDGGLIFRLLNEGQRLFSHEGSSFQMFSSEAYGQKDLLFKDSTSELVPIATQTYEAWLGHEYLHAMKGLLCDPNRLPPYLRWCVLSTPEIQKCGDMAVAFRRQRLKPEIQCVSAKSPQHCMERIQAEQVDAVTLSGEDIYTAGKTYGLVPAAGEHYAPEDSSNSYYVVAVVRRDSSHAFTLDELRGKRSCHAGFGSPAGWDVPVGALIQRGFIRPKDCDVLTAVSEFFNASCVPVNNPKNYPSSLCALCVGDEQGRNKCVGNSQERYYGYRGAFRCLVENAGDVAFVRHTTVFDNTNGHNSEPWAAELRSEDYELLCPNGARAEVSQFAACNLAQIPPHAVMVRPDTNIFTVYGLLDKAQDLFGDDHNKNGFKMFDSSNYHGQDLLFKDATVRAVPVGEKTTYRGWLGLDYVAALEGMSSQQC
Experiment: flow cytometry on SK-MEL-5 cells, fluorescent secondary antibody, MFI

## Task Field request: EC50 | item: CA185 (antibody, human IgG1, kappa, V domains shown, Intact IgG1) VH: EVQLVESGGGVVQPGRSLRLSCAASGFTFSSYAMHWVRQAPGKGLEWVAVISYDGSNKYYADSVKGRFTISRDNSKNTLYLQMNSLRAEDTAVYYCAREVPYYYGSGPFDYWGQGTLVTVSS VL: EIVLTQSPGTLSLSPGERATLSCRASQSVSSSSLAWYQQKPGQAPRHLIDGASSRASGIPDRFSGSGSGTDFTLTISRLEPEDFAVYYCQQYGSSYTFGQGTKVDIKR
## Result 0.123 µg/mL

## Task Then this binder: CA518 (antibody, human IgG1, kappa, V domains shown, Intact IgG1) VH: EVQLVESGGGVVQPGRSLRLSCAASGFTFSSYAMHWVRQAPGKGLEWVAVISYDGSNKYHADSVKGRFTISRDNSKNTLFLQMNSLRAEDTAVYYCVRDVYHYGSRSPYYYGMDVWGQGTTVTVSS VL: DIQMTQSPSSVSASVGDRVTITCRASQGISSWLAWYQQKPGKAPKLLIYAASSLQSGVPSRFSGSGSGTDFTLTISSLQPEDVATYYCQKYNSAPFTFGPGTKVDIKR
## Result 0.081 µg/mL

## Task Next: CA13 (antibody, human IgG1, kappa, V domains shown, Intact IgG1 from fully human antibody-transgenic mice) VH: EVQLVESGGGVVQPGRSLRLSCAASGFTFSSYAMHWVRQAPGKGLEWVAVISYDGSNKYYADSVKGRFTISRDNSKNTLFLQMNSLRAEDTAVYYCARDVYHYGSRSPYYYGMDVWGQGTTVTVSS VL: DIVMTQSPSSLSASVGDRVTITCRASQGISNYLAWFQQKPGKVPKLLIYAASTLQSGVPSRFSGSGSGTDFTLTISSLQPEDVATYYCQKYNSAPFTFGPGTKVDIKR
## Result 0.083 µg/mL

## Task Try reference antibody hL49 (antibody, human IgG1, kappa, V domains shown, also called H149; hL49 analogy) VH: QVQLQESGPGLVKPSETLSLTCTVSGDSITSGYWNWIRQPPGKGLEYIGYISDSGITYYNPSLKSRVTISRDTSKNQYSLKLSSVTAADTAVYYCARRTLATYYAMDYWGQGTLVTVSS VL: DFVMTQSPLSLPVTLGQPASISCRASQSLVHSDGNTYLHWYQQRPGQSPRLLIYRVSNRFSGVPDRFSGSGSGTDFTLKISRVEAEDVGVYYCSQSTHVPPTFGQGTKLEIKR next.
## Result 0.195 µg/mL

## Task Could you do the same for CA67 (antibody, human IgG1, kappa, V domains shown, Intact IgG1) VH: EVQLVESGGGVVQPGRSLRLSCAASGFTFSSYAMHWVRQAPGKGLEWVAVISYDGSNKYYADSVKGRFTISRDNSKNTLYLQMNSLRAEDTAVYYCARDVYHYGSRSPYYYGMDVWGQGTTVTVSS VL: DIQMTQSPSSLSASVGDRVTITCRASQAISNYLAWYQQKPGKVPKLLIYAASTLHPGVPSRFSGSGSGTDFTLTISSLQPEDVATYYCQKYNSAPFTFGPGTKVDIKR , please?
## Result 0.096 µg/mL
